# ASSAY INFO: chemical genetic growth profiling, strain panel (AID 1159580);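 further: tested at 20 µM; growth read once vehicle control cultures reached saturation at 30 °C; 1 = growth at the plate median or of vehicle wells; lower values mean less growth of the strain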
# CONDITION DETAILS: S. cerevisiae deletion strains, growth OD, locus YLR102C, strain apc9, stronger effect = lower value
About 2,000 (36%) of roughly 5,500 compounds were called active. Inconclusive results (about 18%) are left out. The list shows a part of the results.

[
  {
    "MOLECULE": "CCC/C=C1\\OC(=O)C2=C1CCC=C2",
    "normalized growth": 0.988
  },
  {
    "MOLECULE": "COc1cc2occc2c2oc(=O)ccc12",
    "normalized growth": 0.985
  },
  {
    "MOLECULE": "CC(C)(C)NCC(O)c1cc(Cl)c(N)c(Cl)c1 (stereo not given)",
    "normalized growth": 0.992
  },
  {
    "MOLECULE": "CN(C)c1nc(N)c(C(=O)N=C(N)N)nc1Cl",
    "normalized growth": 1
  },
  {
    "MOLECULE": "COc1c2ccoc2cc2oc(=O)ccc12",
    "normalized growth": 0.929
  }
]

Provenance of the data: PubChem BioAssay AID1159580
